- TARGET OR SYSTEM: Melanin-concentrating hormone receptor 1 (Mus musculus)
- RUN DESCRIPTION: Ex vivo displacement of [125I]S36057 binding from mouse brain MCHR1 at 30 mg/kg, po after 6 hrs
- Type: functional, organism-based
- Set-up: dose 30 mg/kg
MEASURED ENDPOINT: Activity

// worked examples, Activity included
>>> value_observed("CN(C)Cc1cccc([C@]23CC[C@@H](N(CC4CCN(S(C)(=O)=O)CC4)C(=O)Nc4ccc(F)c(Cl)c4)CC2C3)c1 (some centres undefined)")
"26%"
>>> value_observed("CC(C)NCCN(C(=O)Nc1cc(Cl)nc(Cl)c1)[C@@H]1CC[C@]2(c3cccc(C#N)c3)CC2C1 (some centres undefined)")
"93%"
>>> value_observed("N#Cc1cccc([C@]23CC[C@@H](N(CCN4CC[C@@H](O)C4)C(=O)Nc4ccc(F)c(Cl)c4)CC2C3)c1 (some centres undefined)")
"49%"

Proceed to the following item.
GET /values?readout=Activity&item= CC(C)N(CCN(C(=O)Nc1ccc(F)c(Cl)c1)[C@@H]1CC[C@]2(c3cccc(C#N)c3)CC2C1)[C@H](C)CO (some centres undefined)
73%

Reference source: ChEMBL document CHEMBL1143739
